- targetUnderTest: T1, recombinant soluble human TREM2 protein (human TREM2 ECD-FlagHis) (human, UniProt Q9NZC2 19-174)
- T1 sequence: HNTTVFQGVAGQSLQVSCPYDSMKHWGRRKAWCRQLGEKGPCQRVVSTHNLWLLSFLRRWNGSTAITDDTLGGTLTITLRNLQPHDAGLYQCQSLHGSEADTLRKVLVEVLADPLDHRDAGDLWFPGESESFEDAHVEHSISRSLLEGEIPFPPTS
- methodDescription: Octet BLI binning; competitor: load Ab 33B12
metricName: sandwich binding signal
// no unit, no text: just the number

Recorded sandwich binding signal, per entry:
binder: 13E7 (antibody, human IgG2, V domains shown, human IgG2 from hybridoma) VH: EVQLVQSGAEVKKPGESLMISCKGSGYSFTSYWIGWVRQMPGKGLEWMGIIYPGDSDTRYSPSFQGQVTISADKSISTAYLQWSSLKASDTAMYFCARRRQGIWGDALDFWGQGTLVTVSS VL: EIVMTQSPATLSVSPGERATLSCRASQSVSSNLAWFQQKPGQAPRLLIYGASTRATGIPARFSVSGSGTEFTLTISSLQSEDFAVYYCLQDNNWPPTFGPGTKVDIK
sandwich binding signal: 0.303
//
binder: 16B8 (antibody, human IgG4, V domains shown, human IgG4 (G4) from hybridoma) VH: QVQLVQSGAEVKKPGASVKVSCKASGYTFTNYGISWVRQAPGQGLEWMGWISAYNGNTNYAQKLQGRVTMTTDTSTSTVYMELRSLRSDDTAVYYCARRGYSYGSFDYWGQGTLVTVSS VL: DIQMTQSPSSVSASVGDRVTVTCRASQDINSWLAWYQQKPGKAPKLLIYAASSLQTGVPSRFSGSGSGTDFTLTISSLQPEDFATYSCQQSNSFPITFGQGTRLEIK
sandwich binding signal: 0.007

In: Identify sandwich binding signal associated with the binder 24F4 (antibody, human IgG2, V domains shown, human IgG2 from hybridoma) VH: EVQLVQSGAEVKKPGESLKISCKGSGYTFTSYWIGWVRQMPGKGLEWMGIIYPGDSDTRYSPSFQGQVTISVDKSSSTAYLQWSSLKASDTAIYYCTRQAIAVTGLGGFDPWGQGTLVTVSS VL: EIVLTQSPGTLSLSPGERATLSCRASQSVSSSYLAWYQQKPGQAPRLLIYGASSRATGIPDRFSGSGSGTDFTLTISRLEPEDFALYYCQQYDTSPFTFGPGTKVDIK
Out: 0.25
